Tested on: Escherichia coli TOP10;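 note: peptides expressed intracellularly from a pBAD plasmid library in pooled LB shake-flask culture, induced with 0.3% L-arabinose, DNA abundance read by NGS, three biological replicates, DESeq2 with apeglm shrinkage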
Assay: shrunken log2 fold change of peptide-encoding DNA abundance (4.5 h post-induction vs induction); higher = less antimicrobial activity (less host growth inhibition)
Details: time post-induction: 4.5 h; library: site-saturation at positions 5, 18, 19, 20
Classes based on shrunken log2 fold change: L = under -0.03, M = from -0.03 up to 0.2, H = 0.2 and over

1) RRIRARPPRLPRPRPRPVVCPRP : H
2) RRIRARPPRLPRPRPRPTGEPRP : M
3) RRIRFRPPRLPRPRPRPWNYPRP : L
4) RRIRARPPRLPRPRPRPHKQPRP : L
5) RRIRGRPPRLPRPRPRPVETPRP : H
6) RRIRHRPPRLPRPRPRPKVDPRP : M

Ask: For this sequence, which bin applies? RRIRSRPPRLPRPRPRPCSGPRP
Result: L

Ask: Entry RRIRERPPRLPRPRPRPNMHPRP belongs to which category?
Result: L

Ask: Kindly state the category for this sequence: RRIRIRPPRLPRPRPRPIYCPRP
Result: L

Ask: Input RRIRMRPPRLPRPRPRPTCFPRP ; output its category
Result: M
